As shown below, each of these variants has a reported polymerase ribozyme fitness (log ratio) value.
B1: TPR t1 (parent)
chain: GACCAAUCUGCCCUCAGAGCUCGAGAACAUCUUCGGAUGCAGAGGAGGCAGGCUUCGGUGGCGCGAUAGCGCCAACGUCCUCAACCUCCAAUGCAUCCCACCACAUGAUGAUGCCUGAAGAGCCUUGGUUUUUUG

Variants of: B1
Assay: polymerase ribozyme fitness, log enrichment relative to wild type (log ratio); higher = more active; in vitro selection for triplet polymerase activity
Give your answer as a number; write no unit.

Below are worked cases with known answers.
GACCAAUCUGCCUUCAGAGCUCGAGAACAUCUUCGGAUGCAGAGGAGGCAGGCUUCGGUGGCGCGAUAGCGCCAACGUCCUCAACCUCCAAUGCAUCCCACAACAUGAUGAUGCCUGAAGAGCCUUGGUUUUUUG: -2.14
GACCAAUCUGCCCUCAGAGCUCGAGAACAUCUUCGGAUGCAGUGGAGGCAGGCUUAGGUGGCGCGAUAGCGCCAACGUCCUCAACCUCCAAUGCAUCCCACCACAUGAUGAUGCCUGAAGAGCCUUGGUUUUUUG: -1.69
GACCAAUCUGCCCUCAGAGCUCGAGAACAUCUUCGGAUGCAGAGGAGGGAGGCUUCGGUGGCGCGAUAGCGCCAACGUACUCAACCUCCAAUGCAUCCCACCACAUGAUGAUGCCUGAAGAGCCUUGGUUUUUUG: -3.75
GACCAAUGUGCCCUUAGAGCUCGAGAACAUCUUCGGAUGCAGAGGCGGCAGGCUUCGGUGGCGCGAUAGCGUCAACGUCCUCAACCUCCAAUACAUCCCACCACAUGAUAAUGCCUGAAGAGCCUUGGUUUUUUG: -2.41
GACCAAUCUGCCCUCAGAGCUCGAGAACAUCUUCGGAUACAGAGGAGUCAGGCUUCGGUGGCGCGAUAGCUCCAACGUCCUCAACCUCCAAUGCAUCCCACCACAUGAUGAUGCCAGAAGAGCCUUGGAUUUUUG: -5.41

Request: Please look up its polymerase ribozyme fitness (log ratio): "GACCAAUCUGCCCUCAGUGCUCGAGAACAUCUUCGGAUGCAGAGGAGGCAGGCUGGGGUGGCGCGAUAGCGCCAACGUCCUCAACCUCCAAUGCAUCCCACCACAUGAUGAUGCCUGAAGAGCCUUGGUUUUUUG"
Result: -4.5

Request: Try the variant "GACCAAUCUGCCCUCAGAGCUCGAGAACAUCUUCGGCUGCGGAGGAGGCAGGAUUCGGUGGCGCGAUAGCGCCAACGUCCUCAACCUUCAAUGCAUCCCACCACAUGAUGAUGCCUGAAGAGCCUUGGUUUUUUG"
Result: -0.41

Request: Try the variant "GACCAAGCUGCCCUCAGAGCUCGAGAACAUCUUCGGAUGUAGAGGAGGCAGGCUUCGGUGGCGCGAUAGCGCCAACGUCCUCAACCUCCAAUGCAUCCCACCACAUGAUGAUGCCUGAAGAGCCUUGGUUUUUUG"
Result: 0.849

Request: Try the variant "GACCAAUCUGUCCUCAGAGCUCGAGAACAUCUUCGGAUGCAGAGGAGGCAGGGUUCGGUGGCGUGAUAGCGCCAACGUCCUCAACCUCCAAUGCAUCCCAUCACAUGAUGAUGCCUGAAGAGCCAUGGUUUUUUG"
Result: -1.43

Request: Try the variant "GACCAUUCUGCCCUCAGAGCUAGAGAACAUCUUCGGAUGCAGAGGAGGCAGGCUUCGGUGGCGCGAUAGCGCCAACGUCCUCAACCUCCAAUGCAUCCCACCACAUGAUGAUGCCUGAAGAGCCUUGGUUUUUUG"
Result: -4.95

Request: Try the variant "GACCAAUCUGCCCUCAGAGCUCGAGAACGUCUUCGGAUGCAGAGGAGGCAGGCUUCGGUGGCGCGAUAGCGCCAACGUCCUCAACCUUCAAUGCAUCCCACCACAUGAUGAUGCCUGAAGAGCCUUGGUUUUUUG"
Result: -1.2

Request: Try the variant "GACCAAUCUGCCCUCAGAGCUCGAGAACAUCUUCGGAUGCAGAGGAGGCAGGCUUCGGUGACGCGAUAGCGACAACGUCCUCAACCUCCAAUGCAUCCCACCACAUGAUGAUGCCUGAAGAGCCUUGGUUUUUUG"
Result: -0.462

Request: Try the variant "GACCAAUCUGCCCUCAGAGCUCGAGAACAUCUUCGGGUGCACAGGAGGCAGGCUUCGGUGGCGCGAUAGCGCCAACGUCCUCAACCUCCAAUGCAUCCCACCACAUGAUGAUGCCUGAAGAGCCUUGGUUUUUUG"
Result: -1.89

Request: Try the variant "GACCAAUCUGCCCUCAGAGCUCGAGAACAUCUUCGGAUGCAGAGUAGGCAGGCUUCGGUGGCGCGAUAGCGCCAACGUCCUCAACCUCCAAUCCAUCCCACCACAUGAUGAUGCCUGAAGAGCCUUGGUUUUUUG"
Result: -0.927

Request: Try the variant "GACCAAUCUGCCCUCAGAGCUCGAGAACAUCUUCGGAUGCAGAGGAGGCAGGCUUCUGUGGCGCGAUAGCGCCAACGUCCUCAACCUCCAAUGCAUCCCACCACAUGAUGAUGCCUGAAGAGCCAUGGUUUUUUG"
Result: -0.415

Request: Try the variant "GACCAAUCUGCCCUCAGAGCUCGAGAACAUCUUCGGAAGCAGAGGAGCCAGGCUUCGGUGGCCCGAUAGCGCCAACGUCCUCAAUCUCCAAUGCAUCCCACCACAUGAUAAUGCCUGAAGAGCCUUGGUUUUUUG"
Result: -5.19

Request: Try the variant "GACCAAUCUGCACUCAGAGCUAGAGAACAUCUUCGGAUGCAGAGGAGGCAGACUUCGGUGGCGCGAUAGCGCCAACGUCCUCAUCCUCCACUGCAUCCCACCACAUGAUGAUGCCUGAACAGCCUUGGUUUUUUG"
Result: -6.58
